# assay-target: T1, TIGIT (T cell immunoreceptor with Ig and ITIM domains) (human, UniProt Q495A1 22-141, limits assumed)
# T1 construct: also called hTIGIT; human TIGIT
# T1 sequence (looked up): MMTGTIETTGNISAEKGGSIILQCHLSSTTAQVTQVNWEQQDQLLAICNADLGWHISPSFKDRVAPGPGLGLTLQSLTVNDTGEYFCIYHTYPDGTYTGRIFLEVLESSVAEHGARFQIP
# experiment-notes: SPR, VHH-V5-His
Listed here: items and their measured kon.

The cases that follow already have their kon on record.
TIGIT-29-01 VHH-V5-His (VHH, not shown: V5-His tag) VHH: EVQLVESGGGLVQAGGSLRLSCAASGRTFSNYAMGWFRQAPGKEREFVAAITWSGTRTDYADSVKGRFTISADNAKNTVYLQMNSLKPEDTAVYYCAAAAWTIYEYDYWGQGTQVTVSS ... 30000 M⁻¹ s⁻¹
TIGIT-30-52 VHH-V5-His (VHH, not shown: V5-His tag) VHH: EVQLVESGGGLVQAGGSLRLSCAASGRTFSNYFMGWFRQAPGKERESVATVTWRDNITYYADSVKGRFTISADNAKNTVYLQMNSLKPEDTAVYYCASAGRWGQGTQVTVSS ... 30000 M⁻¹ s⁻¹
TIGIT-30-01 VHH-V5-His (VHH, not shown: V5-His tag) VHH: EVQLVESGGGLVQAGGSLRLSCAASGFAFSSYWMGWFRQAPGKERELVAARNSGGNTNYADSVKGRFTISADNAKNTVYLQMNSLKPEDTAVYYCAADVWYGSTWRNWGQGTQVTVSS ... 10000 M⁻¹ s⁻¹
TIGIT-30-20 VHH-V5-His (VHH, not shown: V5-His tag) VHH: EVQLVESGGGLVQAGGSLRLSCAASGPTFSIYDMGWFRQAPGKEREFVAVINWSRGSTFYADSVKGRFTISADNAKNTVYLQMNSLKPEDTAVYYCAAGVWSSLRHTAANWGQGTQVTVSS ... 10000 M⁻¹ s⁻¹
TIGIT-30-40 VHH-V5-His (VHH, not shown: V5-His tag) VHH: EVQLVESGGGLVQAGGSLRLSCAASGFTFSGNWMGWFRQAPGKEREWVVGISSGGSTHYADSVKGRFTISADNAKNTVYLQMNSLKPEDTAVYYCAADVWYGSTWRNWGQGTQVTVSS ... 30000 M⁻¹ s⁻¹

// query I have this binder here, TIGIT-29-10 VHH-V5-His (VHH, not shown: V5-His tag) VHH: EVQLVESGGGLVQAGGSLRLSCAASGRTFSNYGMGWFRQAPGKEREFVSGISGSGGRTSYADSVKGRFTISADNAKNTVYLQMNSLKPEDTAVYYCAANLWYPVDRLNTGFNYWGQGTQVTVSS , and I need its recorded kon.
// result 10000 M⁻¹ s⁻¹

// query So what does the record say about kon for TIGIT-29-18 VHH-V5-His (VHH, not shown: V5-His tag) VHH: EVQLVESGGGLVQAGGSLRLSCAASGSTFSNYAMGWFRQAPGKEREFVSAINSSGSRTYYADSVKGRFTISADNAKNTVYLQMNSLKPEDTAVYYCAARLWGTWTAGDYDYWGQGTQVTVSS ?
// result 20000 M⁻¹ s⁻¹

// query Quick one: kon of TIGIT-30-15 VHH-V5-His (VHH, not shown: V5-His tag) VHH: EVQLVESGGGLVQAGGSLRLSCAASGFTFSGNWMGWFRQAPGKEREWVSGISSGGGRTYYADSVKGRFTISADNAKNTVYLQMNSLKPEDTAVYYCAADVWYGSTWRNWGQGTQVTVSS ?
// result 20000 M⁻¹ s⁻¹

// query So what does the record say about kon for TIGIT-29-07 VHH-V5-His (VHH, not shown: V5-His tag) VHH: EVQLVESGGGLVQAGGSLRLSCAASGSIFSNYAMGWFRQAPGKEREFVATISRGGTRTNYADSVKGRFTISADNAKNTVYLQMNSLKPEDTAVYYCAAAAWTIYAYNYWGQGTQVTVSS ?
// result 8000 M⁻¹ s⁻¹
